Origin of values: ChEMBL document CHEMBL3351222

# Organism: Homo sapiens
# test description: Binding affinity to human telomeric G-quadruplex TelQ22-DA DNA assessed as interaction with compound at 25 degC by isothermal titration calorimetry
result type: Kb (×10⁶ /M)

N=C(N)NCCNc1c2c(c(N)c3ccsc13)C(=O)c1ccccc1C2=O | 0.5

1. CNCCNc1c2c(c(NCCNC(=N)N)c3sccc13)C(=O)c1ccccc1C2=O
2. CNCCNc1c2c(c(NCCNC)c3sccc13)C(=O)c1ccccc1C2=O.Cl
3. CNCCNc1c2c(c(NCCNC(=N)N)c3ccsc13)C(=O)c1ccccc1C2=O
4. N=C(N)NCCNc1c2c(c(NCCN)c3sccc13)C(=O)c1ccccc1C2=O
Put the entries in order of Kb, starting with the largest number. Your task in answering is to list the labels in the requested order.
4, 3, 1, 2

---

# target system: Telomerase reverse transcriptase (Homo sapiens, UniProt O14746)
# Sequence (O14746 whole entry): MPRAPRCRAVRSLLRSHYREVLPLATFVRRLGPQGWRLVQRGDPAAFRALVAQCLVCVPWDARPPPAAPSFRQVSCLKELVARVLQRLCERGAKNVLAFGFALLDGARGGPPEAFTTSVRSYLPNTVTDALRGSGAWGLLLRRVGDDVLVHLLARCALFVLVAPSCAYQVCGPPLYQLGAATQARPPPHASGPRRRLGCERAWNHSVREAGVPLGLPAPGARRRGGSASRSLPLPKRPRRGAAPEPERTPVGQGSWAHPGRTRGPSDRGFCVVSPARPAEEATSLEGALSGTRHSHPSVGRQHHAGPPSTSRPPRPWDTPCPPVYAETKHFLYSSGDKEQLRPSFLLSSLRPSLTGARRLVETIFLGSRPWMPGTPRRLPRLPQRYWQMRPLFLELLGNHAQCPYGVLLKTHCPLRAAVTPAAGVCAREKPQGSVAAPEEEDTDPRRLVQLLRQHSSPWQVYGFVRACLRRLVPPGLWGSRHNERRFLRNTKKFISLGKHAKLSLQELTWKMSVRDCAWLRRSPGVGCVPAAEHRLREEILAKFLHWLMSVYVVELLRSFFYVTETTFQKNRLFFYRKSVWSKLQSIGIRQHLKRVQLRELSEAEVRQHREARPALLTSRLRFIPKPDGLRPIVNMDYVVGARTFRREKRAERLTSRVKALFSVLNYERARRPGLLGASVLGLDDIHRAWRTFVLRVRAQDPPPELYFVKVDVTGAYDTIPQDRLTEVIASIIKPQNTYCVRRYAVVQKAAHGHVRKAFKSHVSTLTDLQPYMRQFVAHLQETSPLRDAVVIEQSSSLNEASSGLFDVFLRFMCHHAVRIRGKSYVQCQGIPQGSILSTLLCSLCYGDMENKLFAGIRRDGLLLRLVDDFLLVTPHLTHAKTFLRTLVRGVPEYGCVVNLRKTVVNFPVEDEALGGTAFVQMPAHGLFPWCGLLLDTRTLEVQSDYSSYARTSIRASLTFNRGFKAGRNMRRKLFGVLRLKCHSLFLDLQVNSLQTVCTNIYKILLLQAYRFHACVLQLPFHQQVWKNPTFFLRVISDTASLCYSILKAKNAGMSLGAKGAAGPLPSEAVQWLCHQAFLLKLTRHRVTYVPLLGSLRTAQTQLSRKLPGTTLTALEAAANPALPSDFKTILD
# test description: Inhibition of human telomerase transfected in human HEK293T cells assessed as DNA extension using 5'-d(AATCCGTCGAGCAGAGTT)-3' substrate by Real-time quantitative telomeric repeat amplification protocol
# Format: cell-based
# condition label: hek-293t
pIC50: −log10 of the molar value.
result type: pIC50

Consider the worked cases shown below.
Nc1c2c(c(N)c3sccc13)C(=O)c1ccccc1C2=O | 4.48
CNCCNc1c2c(c(NCCNC)c3sccc13)C(=O)c1ccccc1C2=O.Cl | 6.30
N=C(N)NCCNc1c2c(c(NCCN)c3sccc13)C(=O)c1ccccc1C2=O | 7.00

1. CNCCNc1c2c(c(NCCNC(=N)N)c3ccsc13)C(=O)c1ccccc1C2=O
2. N=C(N)NCCNc1c2c(c(N)c3ccsc13)C(=O)c1ccccc1C2=O
Parameter metric = pIC50. Return the lower-valued option from 1 and 2 . Your choice should be expressed through its label.
2

---

# Organism: Homo sapiens
# test description: Binding affinity to human telomeric G-quadruplex TelQ22-DA DNA assessed as interaction with compound at 25 degC by isothermal titration calorimetry
result type: Kb (×10⁶ /M)

1. CC(=N)NCCNc1c2c(c(NCCNC(C)=N)c3sccc13)C(=O)c1ccccc1C2=O
2. N=C(N)NCCNc1c2c(c(N)c3sccc13)C(=O)c1ccccc1C2=O
3. Cl.N=C(N)NCCNc1c2c(c(NCCCN)c3sccc13)C(=O)c1ccccc1C2=O
List these items ordered by Kb, big to small. Your task in answering is to list the labels in the requested order.
3, 1, 2

---

# target system: Telomerase reverse transcriptase (Homo sapiens, UniProt O14746)
# test description: Inhibition of human telomerase transfected in human HEK293T cells assessed as DNA extension using 5'-d(AATCCGTCGAGCAGAGTT)-3' substrate
# Format: cell-based
# condition label: hek-293t
pIC50: −log10 of the molar value.
result type: pIC50

I. Nc1c2c(c(N)c3sccc13)C(=O)c1ccccc1C2=O
II. N=C(N)NCCNc1c2c(c(N)c3sccc13)C(=O)c1ccccc1C2=O
III. CNCCNc1c2c(c(NCCNC)c3sccc13)C(=O)c1ccccc1C2=O.Cl
List these items ordered by pIC50, big to small. Your task in answering is to list the labels in the requested order.
III, II, I
(III: 6.15, II: 5.70, I: 5.00)

I. N=C(N)NCCNc1c2c(c(N)c3ccsc13)C(=O)c1ccccc1C2=O
II. Cl.N=C(N)NCCNc1c2c(c(NCCNC(=N)N)c3sccc13)C(=O)c1ccccc1C2=O
Between the entries labelled I and II , which has a larger pIC50 value on record? Your choice should be expressed through its label.
II

I. CNCCNc1c2c(c(NCCNC(=N)N)c3ccsc13)C(=O)c1ccccc1C2=O
II. CNCCNc1c2c(c(NCCNC(=N)N)c3sccc13)C(=O)c1ccccc1C2=O
Between the entries labelled I and II , which has a larger pIC50 value on record? Your choice should be expressed through its label.
I
(I: 6.22, II: 5.96)

1. N=C(N)NCCNc1c2c(c(NCCN)c3sccc13)C(=O)c1ccccc1C2=O
2. CC(=N)NCCNc1c2c(c(NCCNC(C)=N)c3sccc13)C(=O)c1ccccc1C2=O
Parameter metric = pIC50. Return the lower-valued option from 1 and 2 . Your choice should be expressed through its label.
1
(1: 6.10, 2: 6.33)
